Quick record of pIC50 values for UniProt P10275.
pIC50: −log10 of the molar value.
Readout: pIC50

[[record]]
molecule = "COc1c(O)ccc2c1-c1ccc3[nH]c(=O)cc(C)c3c1CO2"
quantitative_result = 8.92

[[record]]
molecule = "COc1cccc2c1-c1ccc3[nH]c(=O)cc(C)c3c1C(OC)O2 (stereo unspecified)"
quantitative_result = 6.95

[[record]]
molecule = "COc1cccc2c(=O)oc3c(ccc4[nH]c(=O)cc(C(F)(F)F)c43)c12"
quantitative_result = 7.05

[[record]]
molecule = "COc1cccc2c1-c1ccc3[nH]c(=O)cc(C(F)(F)F)c3c1CO2"
quantitative_result = 7.85

[[record]]
molecule = "Cc1cc(=O)[nH]c2ccc3c4cc(F)ccc4oc(=O)c3c12"
quantitative_result = 7.00

[[record]]
molecule = "CCOc1ccc2oc(=O)c3c(ccc4[nH]c(=O)cc(C)c43)c2c1OC"
quantitative_result = 8.00


====

Quick record of IC50 values for Androgen receptor (Homo sapiens, UniProt P10275).
Readout: IC50

[[record]]
compound = "COc1cccc2c(=O)oc3c(ccc4[nH]c(=O)cc(C(F)(F)F)c43)c12"
result = "> 10000 nM"

[[record]]
compound = "COc1cccc2c1-c1ccc3[nH]c(=O)cc(C)c3c1C(O)O2 (stereo not drawn)"
result = "> 10000 nM"

[[record]]
compound = "COc1cccc2c1-c1ccc3[nH]c(=O)cc(C)c3c1C(OC)O2 (stereo not drawn)"
result = "19 nM"

[[record]]
compound = "COc1c(O)ccc2oc(=O)c3c(ccc4[nH]c(=O)cc(C)c43)c12"
result = "> 10000 nM"

[[record]]
compound = "COc1c(OC(C)C)ccc2oc(=O)c3c(ccc4[nH]c(=O)cc(C)c43)c12"
result = "20 nM"

[[record]]
compound = "COc1cccc2c1-c1ccc3[nH]c(=O)cc(C(F)(F)F)c3c1CO2"
result = "> 10000 nM"

[[record]]
compound = "Cc1cc(=O)[nH]c2ccc3c4cc(F)ccc4oc(=O)c3c12"
result = "27 nM"

[[record]]
compound = "COc1c(C(=O)OC(F)(F)F)ccc2oc(=O)c3c(ccc4[nH]c(=O)cc(C)c43)c12"
result = "> 10000 nM"


====

Below: a set of entries, each annotated with reported pEC50.
Test target: Androgen receptor (Homo sapiens)
Sequence (P10275 whole entry): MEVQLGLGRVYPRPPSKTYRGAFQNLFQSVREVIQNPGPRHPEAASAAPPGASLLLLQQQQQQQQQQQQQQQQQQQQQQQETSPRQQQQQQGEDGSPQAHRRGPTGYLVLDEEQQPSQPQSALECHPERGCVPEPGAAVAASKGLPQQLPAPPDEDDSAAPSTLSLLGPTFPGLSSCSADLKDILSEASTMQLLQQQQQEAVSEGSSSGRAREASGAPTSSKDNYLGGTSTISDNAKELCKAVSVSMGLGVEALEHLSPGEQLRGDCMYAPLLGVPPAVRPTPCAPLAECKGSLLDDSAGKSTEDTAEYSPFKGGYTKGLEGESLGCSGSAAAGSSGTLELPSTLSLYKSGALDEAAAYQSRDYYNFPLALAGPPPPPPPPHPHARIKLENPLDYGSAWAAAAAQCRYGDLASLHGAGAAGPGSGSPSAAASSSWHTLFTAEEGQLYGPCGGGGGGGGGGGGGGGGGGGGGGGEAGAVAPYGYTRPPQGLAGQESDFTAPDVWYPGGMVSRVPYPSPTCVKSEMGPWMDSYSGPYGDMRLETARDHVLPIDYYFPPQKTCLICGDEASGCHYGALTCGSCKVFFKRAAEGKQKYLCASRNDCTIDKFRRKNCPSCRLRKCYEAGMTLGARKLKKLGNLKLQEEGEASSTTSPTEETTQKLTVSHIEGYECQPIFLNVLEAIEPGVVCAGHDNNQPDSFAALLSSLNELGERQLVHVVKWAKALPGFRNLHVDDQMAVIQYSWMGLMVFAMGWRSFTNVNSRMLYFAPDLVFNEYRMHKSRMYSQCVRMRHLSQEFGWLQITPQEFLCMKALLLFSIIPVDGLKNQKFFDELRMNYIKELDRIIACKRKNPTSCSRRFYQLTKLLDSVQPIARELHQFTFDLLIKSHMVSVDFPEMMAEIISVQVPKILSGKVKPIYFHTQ
pEC50: −log10 of the molar value.
Readout: pEC50

[[record]]
compound = "COc1cccc2c1-c1ccc3[nH]c(=O)cc(C)c3c1C(C)O2 (stereo not drawn)"
test_target = "Androgen receptor (Homo sapiens)"
inequality_operator = "<"
quantitative_result = 5.00

[[record]]
compound = "COc1ccc2oc(=O)c3c(ccc4[nH]c(=O)cc(C)c43)c2c1"
test_target = "Androgen receptor (Homo sapiens)"
inequality_operator = "<"
quantitative_result = 5.00

[[record]]
compound = "COc1cccc2c1-c1ccc3[nH]c(=O)cc(C(F)(F)F)c3c1OC2"
test_target = "Androgen receptor (Homo sapiens)"
inequality_operator = "<"
quantitative_result = 5.00

[[record]]
compound = "O=c1cc(C(F)(F)F)c2c3c(ccc2[nH]1)-c1c(O)cccc1OC3"
test_target = "Androgen receptor (Homo sapiens)"
inequality_operator = "="
quantitative_result = 7.80

[[record]]
compound = "COc1cccc2c1-c1ccc3[nH]c(=O)cc(C(F)(F)F)c3c1CO2"
test_target = "Androgen receptor (Homo sapiens)"
inequality_operator = "="
quantitative_result = 7.70

[[record]]
compound = "Cc1cc(=O)[nH]c2ccc3c4cc(F)ccc4oc(=O)c3c12"
test_target = "Androgen receptor (Homo sapiens)"
inequality_operator = "="
quantitative_result = 6.62

[[record]]
compound = "COc1c(O)ccc2c1-c1ccc3[nH]c(=O)cc(C)c3c1CO2"
test_target = "Androgen receptor (Homo sapiens)"
inequality_operator = "="
quantitative_result = 6.51

[[record]]
compound = "C=CCC1Oc2cccc(OC)c2-c2ccc3[nH]c(=O)cc(C)c3c21 (stereo not drawn)"
test_target = "Androgen receptor (Homo sapiens)"
inequality_operator = "<"
quantitative_result = 5.00

